# protocol notes: Isocratic RP HPLC: log k vs φ plots, UHI (acetonitrile concentration at k=10) and S slope
# Format: physicochemical
# condition notes: acetonitrile concentration (ACN %) at k=10, isocratic, XTerra C18, 20 mM ammonium formate pH 10, ~25° C.; in %
parameter measured: UHI 100 Å C18 − pH 10

> print(dat)
                                  substance     parameter.measured  measured.number
1  LLLLLDFR [custom synthesized standard peptide]  UHI 100 Å C18 − pH 10            28.94
2  LGGGGGGDFR [custom synthesized standard peptide]  UHI 100 Å C18 − pH 10             6.80
3  LLLLDFR [custom synthesized standard peptide]  UHI 100 Å C18 − pH 10            24.18
4  LLGGGGDFR [custom synthesized standard peptide]  UHI 100 Å C18 − pH 10            13.65
5  LGGGGGGDGSR [custom synthesized standard peptide]  UHI 100 Å C18 − pH 10             1.14
6  LLLGGDFR [custom synthesized standard peptide]  UHI 100 Å C18 − pH 10            18.29
